Where these numbers come from: patent US20190292179A1

# IC50 per record follows
biological target: HIS-TGFβR1 T204D (Homo sapiens, UniProt P36897, T204D); test: HTRF probe-displacement assay with HIS-TGFβR1 T204D; assay type: binding; details: 1 nM HIS-TGFβR1 T204D, labeled probe at Kd, 1 hour at room temperature
Sequence (P36897 34-503 T204D): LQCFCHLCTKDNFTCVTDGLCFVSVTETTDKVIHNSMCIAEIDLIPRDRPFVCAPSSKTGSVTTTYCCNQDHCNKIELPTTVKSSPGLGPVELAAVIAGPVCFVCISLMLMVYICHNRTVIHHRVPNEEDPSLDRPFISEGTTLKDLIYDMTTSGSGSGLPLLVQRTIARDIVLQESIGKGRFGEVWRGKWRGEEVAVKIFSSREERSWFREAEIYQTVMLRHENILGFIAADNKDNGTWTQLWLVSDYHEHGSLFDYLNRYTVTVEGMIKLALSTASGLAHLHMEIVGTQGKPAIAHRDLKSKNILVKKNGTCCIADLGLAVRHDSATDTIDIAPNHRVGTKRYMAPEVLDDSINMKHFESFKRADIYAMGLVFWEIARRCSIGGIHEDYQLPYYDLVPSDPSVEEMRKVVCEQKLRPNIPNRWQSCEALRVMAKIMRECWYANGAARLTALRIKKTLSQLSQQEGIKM
reported_endpoint: IC50

>>> measured("Cc1cccc(-c2nn(C)cc2-c2ccc3ncc(NC(=O)C(F)(F)F)n3c2)n1")
"0.079 µM"
>>> measured("Fc1ccc(-c2n[nH]cc2-c2ccc3nccn3c2)cc1")
"0.014 µM"
>>> measured("N#Cc1cnc2ccc(-c3c(-c4ccc(F)cc4)n[nH]c3C(N)=O)cn12")
"0.145 µM"
>>> measured("CC(O)c1cnc2ccc(-c3c(-c4ccc(F)cc4)n[nH]c3C3CC3)cn12 (stereo not drawn)")
"0.008 µM"
>>> measured("Cc1cccc(-c2nn(C)cc2-c2ccc3ncc(C(N)=O)n3c2)n1")
"0.001 µM"
>>> measured("Cc1cc(-c2n[nH]c(C(C)C)c2-c2ccc3ncc(C#N)n3c2)ccc1F")
"0.001 µM"
>>> measured("N#Cc1cnc2ccc(-c3cn(CC(F)F)nc3-c3cccc(C(F)(F)F)n3)cn12")
"0.008 µM"
>>> measured("Cc1cccc(-c2n[nH]c(C3CC3)c2-c2ccc3ncc(C#N)n3c2)n1")
"0.001 µM"
>>> measured("FC(F)(F)c1cccc(-c2n[nH]cc2-c2ccc3nccn3c2)n1")
"0.001 µM"
>>> measured("Fc1ccc(-c2n[nH]c(C3CC3)c2-c2ccc3nccn3n2)cc1")
"0.002 µM"
>>> measured("CC(C)(O)c1cnc2ccc(-c3c(-c4ccc(F)cc4)nn4c3COCC4)cn12")
"3.81 µM"
>>> measured("Fc1ccc(-c2n[nH]c(C3CC3)c2-c2ccc3ncc(F)n3c2)cc1")
"0.014 µM"
>>> measured("N#Cc1cnc2ccc(-c3c(-c4ccc(F)cc4)n[nH]c3C(F)(F)F)cn12")
"0.041 µM"
>>> measured("Cc1cc(-c2n[nH]cc2-c2ccc3nccn3c2)ccc1F")
"0.002 µM"
>>> measured("Cc1cccc(-c2nn(C)cc2-c2ccc3ncc(C(C)(C)O)n3c2)n1")
"0.007 µM"
>>> measured("Cc1cc(-c2n[nH]c(C3CC3)c2-c2ccc3ncc(C#N)n3c2)ccc1F")
"0.001 µM"
>>> measured("Fc1ccc(-c2n[nH]cc2-c2ccc3ncc(F)n3c2)cc1")
"0.007 µM"
>>> measured("CC(=O)Nc1cc(-c2c[nH]nc2-c2ccc(F)cc2)cn2ccnc12")
"0.811 µM"

====

target: HIS-TGFβR2 WT (Homo sapiens, UniProt P37173); experiment: HTRF probe-displacement assay with HIS-TGFβR2 WT; assay type: binding; conditions: 1 nM HIS-TGFβR2 WT, labeled probe at Kd, 1 hour at room temperature
Sequence (P37173 23-567): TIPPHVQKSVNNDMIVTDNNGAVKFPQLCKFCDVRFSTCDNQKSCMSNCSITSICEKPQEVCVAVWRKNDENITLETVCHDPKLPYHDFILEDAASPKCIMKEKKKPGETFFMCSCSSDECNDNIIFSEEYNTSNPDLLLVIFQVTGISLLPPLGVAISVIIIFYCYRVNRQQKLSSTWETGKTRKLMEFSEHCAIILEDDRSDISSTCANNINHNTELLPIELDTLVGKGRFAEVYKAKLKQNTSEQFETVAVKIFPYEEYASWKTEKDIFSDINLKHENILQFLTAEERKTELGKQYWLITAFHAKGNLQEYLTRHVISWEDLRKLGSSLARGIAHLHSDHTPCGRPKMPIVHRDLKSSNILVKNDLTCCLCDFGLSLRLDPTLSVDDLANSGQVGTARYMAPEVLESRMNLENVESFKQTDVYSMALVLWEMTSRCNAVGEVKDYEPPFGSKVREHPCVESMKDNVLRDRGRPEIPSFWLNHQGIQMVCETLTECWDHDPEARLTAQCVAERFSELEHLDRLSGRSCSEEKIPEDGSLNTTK
Decide using IC50 alone. Strictly below 0.5 µM: label 1. Equal to or above 0.5 µM: label 0.

>>> discrete_label("Cc1cccc(-c2n[nH]cc2-c2ccc3ncc(C(N)=O)n3n2)n1")
"label 1"
>>> discrete_label("Cc1cc(-c2n[nH]c(C(C)C)c2-c2ccc3ncc(C(N)=O)n3c2)ccc1F")
"label 1"
>>> discrete_label("Cc1cccc(-c2n[nH]c(C3CC3)c2-c2ccc3nccn3c2)n1")
"label 1"
>>> discrete_label("NC(=O)c1cnc2ccc(-c3cn(CC(F)F)nc3-c3ccc(F)c(Cl)c3)cn12")
"label 0"
>>> discrete_label("OCc1[nH]nc(-c2ccc(F)cc2)c1-c1ccc2nccn2c1")
"label 0"
>>> discrete_label("Cc1cccc(-c2c(-c3ccc4ncc(C#N)n4c3)cnn2C2CC2)n1")
"label 0"
>>> discrete_label("N#Cc1cnc2ccc(-c3c[nH]nc3-c3ccc(F)cc3)nn12")
"label 1"
>>> discrete_label("N#Cc1cnc2ccc(-c3c[nH]nc3-c3ccc(F)c(Cl)c3)cn12")
"label 1"
>>> discrete_label("Cc1cccc(-c2n[nH]cc2-c2ccc3[nH]ncc3c2)n1")
"label 0"

====

# IC50 per record follows
Biological target: HIS-TGFβR2 WT (Homo sapiens)
Assay: HTRF probe-displacement assay with HIS-TGFβR2 WT
Assay type: binding
Settings: 1 nM HIS-TGFβR2 WT, labeled probe at Kd, 1 hour at room temperature
Protocol: The reaction is incubated for 1 hour at room temperature and the HTRF signal was measured on an Envision plate reader (Ex: 340 nm; Em: 520 nm/495 nm). Inhibition data were calculated by comparison to no enzyme control reactions for 100% inhibition and vehicle-only reactions for 0% inhibition. […] Compounds were dissolved at 10 mM in dimethylsulfoxide (DMSO) and evaluated at eleven concentrations. […]
reported_endpoint: IC50 (µM)

>>> measured("Cc1cccc(-c2nn(C)cc2-c2ccc3ncc(C#N)n3n2)n1")
9.74
>>> measured("N#Cc1cnc2ccc(-c3c[nH]nc3-c3cccc(C(F)F)n3)cn12")
1.11
>>> measured("CCc1[nH]nc(-c2cccc(C)n2)c1-c1ccc2ncc(C#N)n2c1")
2.06
>>> measured("Fc1ccc(-c2n[nH]c(C3CC3)c2-c2ccc3nccn3n2)cc1")
6.9
>>> measured("Cc1cccc(-c2nn(C)c(C(C)C)c2-c2ccc3nccn3c2)n1")
4.95

====

molecular target: HIS-TGFβR1 T204D (Homo sapiens, UniProt P36897, T204D); experiment: HTRF probe-displacement assay with HIS-TGFβR1 T204D; format: binding; details: 1 nM HIS-TGFβR1 T204D, labeled probe at Kd, 1 hour at room temperature
reported_endpoint: log10(IC50) (log10 of the value in µM)

>>> measured("OCc1cnc2ccc(-c3c(-c4ccc(F)cc4)n[nH]c3C3CC3)cn12")
-2.40
>>> measured("Cc1cccc(-c2c(-c3ccc4ncc(C#N)n4c3)c(C(C)C)nn2C)n1")
-2.05
>>> measured("N#Cc1cnc2ccc(-c3c(-c4ccc(Cl)cc4)n[nH]c3C3CC3)cn12")
-1.15
>>> measured("Clc1ccc(-c2n[nH]cc2-c2ccc3nccn3c2)cc1")
-0.95
>>> measured("Fc1ccc(-c2n[nH]cc2-c2cc(F)c3nccn3c2)cc1")
-0.23
>>> measured("N#Cc1cnc2ccc(-c3cn(CCO)nc3-c3ccc(F)c(Cl)c3)cn12")
-2.70
>>> measured("O=C(O)c1cnc2ccc(-c3c[nH]nc3-c3ccc(F)cc3)cn12")
-1.92
>>> measured("CCOC(=O)c1[nH]nc(-c2ccc(F)cc2)c1-c1ccc2ncc(C#N)n2c1")
-0.55
>>> measured("NC(=O)c1cnc2ccc(-c3c(-c4ccc(Cl)cc4)n[nH]c3C3CC3)cn12")
-3.00

====

# IC50 per record follows
molecular target: HIS-TGFβR1 T204D (Homo sapiens, UniProt P36897, T204D); test: HTRF probe-displacement assay with HIS-TGFβR1 T204D; assay type: binding; conditions: 1 nM HIS-TGFβR1 T204D, labeled probe at Kd, 1 hour at room temperature
Where a name gives a salt, the structure may show the parent alone.
reported_endpoint: IC50 (µM)

>>> measured("NC(=O)c1cnc2ccc(-c3c[nH]nc3-c3ccc(F)cc3)cn12")
0.002
>>> measured("CC(C)(O)c1cnc2ccc(-c3c[nH]nc3-c3ccc(F)cc3)cn12")
0.241
>>> measured("Cc1cc(-c2n[nH]c(C3CC3)c2-c2ccc3nccn3c2)ccc1F")
0.001
>>> measured("CC(=O)Nc1cnc2ccc(-c3c[nH]nc3-c3ccc(F)cc3)nn12")
0.025
>>> measured("Cc1cccc(-c2nn(C)cc2-c2ccc3ncc(NC(C)(C)C)n3c2)n1")
0.03
>>> measured("Fc1ccc(-c2n[nH]c(C3CC3)c2-c2ccc3nccn3c2)cc1")
0.004
>>> measured("Cc1cccc(-c2nn(C)c(C)c2-c2ccc3ncc(C(N)=O)n3c2)n1")
0.001
>>> measured("Cn1nc(C(F)(F)F)c(-c2ccc3ncc(C(N)=O)n3c2)c1-c1ccc(F)cc1")
1.13
>>> measured("CC(C)c1[nH]nc(-c2ccc(Cl)cc2)c1-c1ccc2ncc(C#N)n2c1")
0.054
>>> measured("Cn1nc(C2CC2)c(-c2ccc3ncc(C(N)=O)n3c2)c1-c1ccc(F)cc1")
0.058
>>> measured("Cc1cc(-c2n[nH]c(C(C)C)c2-c2ccc3ncc(C(N)=O)n3c2)ccc1F")
0.001
>>> measured("Fc1ccc(-c2n[nH]cc2-c2ccc3nccn3n2)cc1Cl [Example 39, TFA]")
0.004
>>> measured("Cn1nc(-c2ccc(F)cc2)c(-c2ccc3ncc(C(N)=O)n3c2)c1C(F)(F)F")
0.022
>>> measured("NC(=O)c1cnc2ccc(-c3c(-c4ccc(F)cc4)nn4c3COCC4)cn12")
0.002
>>> measured("CC(C)(O)c1[nH]nc(-c2ccc(F)cc2)c1-c1ccc2nccn2c1")
0.153
>>> measured("NC(=O)c1cnc2ccc(-c3c[nH]nc3-c3ccc(Cl)cc3)cn12")
0.004
>>> measured("Cc1cccc(-c2nn(C)c(C(C)C)c2-c2ccc3nccn3c2)n1")
0.003
>>> measured("CC(=O)Nc1cc(-c2c(-c3ccc(F)cc3)nn3c2COCC3)ccn1")
0.011
>>> measured("OCc1[nH]nc(-c2ccc(F)cc2)c1-c1ccc2nccn2c1")
0.027
>>> measured("O=C(O)c1[nH]nc(-c2ccc(F)cc2)c1-c1ccc2nccn2c1")
25.3
>>> measured("CCc1c(-c2ccc3ncc(C(N)=O)n3c2)c(-c2cccc(C)n2)nn1C")
0.001
>>> measured("CCOC(=O)c1[nH]nc(-c2cccc(C)n2)c1-c1ccc2nccn2c1")
0.002
>>> measured("CCc1[nH]nc(-c2cccc(C)n2)c1-c1ccc2nccn2c1")
0.001
>>> measured("CCc1[nH]nc(-c2cccc(C)n2)c1-c1ccc2ncc(C#N)n2c1")
0.001
>>> measured("Cc1cccc(-c2n[nH]c(C)c2-c2ccc3ncc(C(N)=O)n3c2)n1")
0.001
>>> measured("Fc1ccc(-c2n[nH]cc2-c2ccc3nccn3n2)cc1")
0.006
>>> measured("Cc1cccc(-c2n[nH]c(C(C)C)c2-c2ccc3nccn3c2)n1")
0.001
>>> measured("CC(C)c1[nH]nc(-c2ccc(F)cc2)c1-c1ccc2nccn2c1")
0.007
>>> measured("CC(C)c1[nH]nc(-c2ccc(Cl)cc2)c1-c1ccc2nccn2c1")
0.144
>>> measured("Clc1ccc(-c2n[nH]c(C3CC3)c2-c2ccc3nccn3c2)cc1")
0.05
>>> measured("N#Cc1cnc2ccc(-c3c[nH]nc3-c3ccc(Cl)cc3)cn12")
0.092
>>> measured("Cc1cccc(-c2nn(C)cc2-c2ccc3ncc(C#N)n3n2)n1")
0.003
>>> measured("NC(=O)c1cnc2ccc(-c3c[nH]nc3-c3ccc(F)c(Cl)c3)cn12 [Example 42, TFA]")
0.001
>>> measured("Fc1ccc(-c2n[nH]cc2-c2ccc3nccn3c2)cc1Cl [Example 40, TFA]")
0.003
>>> measured("CC(C)(C)Nc1cnc2ccc(-c3c[nH]nc3-c3ccc(F)cc3)cn12")
0.502
